# target-system: T1, fibrin
# T1 chain 1: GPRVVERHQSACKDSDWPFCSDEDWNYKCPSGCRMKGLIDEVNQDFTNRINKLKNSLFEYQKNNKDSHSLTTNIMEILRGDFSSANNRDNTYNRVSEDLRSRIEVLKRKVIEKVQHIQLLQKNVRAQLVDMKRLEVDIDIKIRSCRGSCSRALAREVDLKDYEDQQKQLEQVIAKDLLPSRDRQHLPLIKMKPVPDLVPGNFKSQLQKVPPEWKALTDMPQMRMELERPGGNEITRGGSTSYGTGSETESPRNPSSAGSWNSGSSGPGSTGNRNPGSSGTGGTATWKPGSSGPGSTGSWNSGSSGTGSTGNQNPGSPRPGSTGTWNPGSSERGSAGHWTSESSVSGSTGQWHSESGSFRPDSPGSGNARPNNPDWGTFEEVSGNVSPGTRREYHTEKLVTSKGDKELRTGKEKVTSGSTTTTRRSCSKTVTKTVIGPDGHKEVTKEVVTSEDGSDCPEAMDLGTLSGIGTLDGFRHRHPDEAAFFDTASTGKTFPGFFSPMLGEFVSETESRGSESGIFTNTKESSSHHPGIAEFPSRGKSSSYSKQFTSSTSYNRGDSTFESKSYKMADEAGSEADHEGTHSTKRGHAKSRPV
# T1 chain 2: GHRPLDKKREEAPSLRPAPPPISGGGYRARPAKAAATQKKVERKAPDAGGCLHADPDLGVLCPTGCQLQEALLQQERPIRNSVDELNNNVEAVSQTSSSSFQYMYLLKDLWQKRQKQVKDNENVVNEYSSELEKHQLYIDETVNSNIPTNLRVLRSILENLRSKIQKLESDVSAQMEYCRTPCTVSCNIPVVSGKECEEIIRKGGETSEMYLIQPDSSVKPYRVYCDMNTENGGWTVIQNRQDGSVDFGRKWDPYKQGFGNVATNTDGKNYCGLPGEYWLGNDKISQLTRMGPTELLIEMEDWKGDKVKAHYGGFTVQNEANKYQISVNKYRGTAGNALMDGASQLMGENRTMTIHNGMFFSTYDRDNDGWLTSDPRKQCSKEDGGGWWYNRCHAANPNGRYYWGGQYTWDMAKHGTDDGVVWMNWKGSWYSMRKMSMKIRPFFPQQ
# T1 chain 3: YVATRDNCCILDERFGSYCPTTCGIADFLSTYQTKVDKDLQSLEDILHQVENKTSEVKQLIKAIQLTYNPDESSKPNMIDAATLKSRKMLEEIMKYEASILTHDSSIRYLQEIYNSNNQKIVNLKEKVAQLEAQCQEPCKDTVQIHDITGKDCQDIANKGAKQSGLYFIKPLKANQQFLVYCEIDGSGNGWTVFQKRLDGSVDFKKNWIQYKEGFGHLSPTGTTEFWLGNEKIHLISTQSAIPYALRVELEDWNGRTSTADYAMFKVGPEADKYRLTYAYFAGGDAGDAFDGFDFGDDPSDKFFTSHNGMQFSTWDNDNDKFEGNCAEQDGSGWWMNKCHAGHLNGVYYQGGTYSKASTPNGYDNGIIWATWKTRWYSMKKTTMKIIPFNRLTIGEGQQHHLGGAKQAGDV
# test: fluorescence polarization, direct binding (n = 2)
Bridge positions count the residues as written; N and C are the ends. * marks the point of attachment. αGalNAc = CC(=O)N[C@@H]1[C@@H](O)[C@@H](O)[C@@H](CO)O[C@@H]1*; CF5 = 5-carboxyfluorescein
hey, just use t if measured Kd is less than 300 nM, otherwise f

Example results:
{"binder": "H-RGWQPCPWESWTFCWDPGGGK(CF5)-NH2 (disulfide 6-14) [RGWQPC*PWESWTFC*WDPGGGK(CF5)-NH2]", "class": "t"}
{"binder": "Ac-GPPGWQPCPAESWTFCWDPGGGK(CF5)-NH2 (disulfide 8-16) [Ac-GPPGWQPC*PAESWTFC*WDPGGGK(CF5)-NH2]", "class": "f"}
{"binder": "Ac-SGSGSGSGWQPCPAESWTFCWDPGGGK(CF5)-NH2 (disulfide 12-20) [Ac-SGSGSGSGWQPC*PAESWTFC*WDPGGGK(CF5)-NH2]", "class": "f"}

Incoming: Consider the binder Ac-S(αGalNAc)WQPCPWESWTFCWDPGGGK(CF5)-NH2 (disulfide 5-13) [Ac-S(Galnac)-WQPC*PWESWTFC*WDPGGGK(CF5)-NH2] . Is its Kd strictly less than 300 nM?
Outgoing: f

Incoming: Consider the binder Ac-KGKGKGWQPCPWESWTFCWDPGGGK(CF5)-NH2 (disulfide 10-18) [Ac-KGKGKGWQPC*PWESWTFC*WDPGGGK(CF5)-NH2] . Is its Kd strictly less than 300 nM?
Outgoing: f

Incoming: Consider the binder Ac-GGRGWQPCPWESWTFCWDPGGGK(CF5)-NH2 (disulfide 8-16) [Ac-GGRGWQPC*PWESWTFC*WDPGGGK(CF5)-NH2] . Is its Kd strictly less than 300 nM?
Outgoing: t
